Entry source: ChEMBL document CHEMBL1150264

biological target: Melanocyte-stimulating hormone receptor (Homo sapiens); assay: Agonist activity at human melanocortin 1 receptor expressed in HEK293 cells assessed as cAMP accumulation; type: functional, cell-based
Sequence (Q01726 whole entry): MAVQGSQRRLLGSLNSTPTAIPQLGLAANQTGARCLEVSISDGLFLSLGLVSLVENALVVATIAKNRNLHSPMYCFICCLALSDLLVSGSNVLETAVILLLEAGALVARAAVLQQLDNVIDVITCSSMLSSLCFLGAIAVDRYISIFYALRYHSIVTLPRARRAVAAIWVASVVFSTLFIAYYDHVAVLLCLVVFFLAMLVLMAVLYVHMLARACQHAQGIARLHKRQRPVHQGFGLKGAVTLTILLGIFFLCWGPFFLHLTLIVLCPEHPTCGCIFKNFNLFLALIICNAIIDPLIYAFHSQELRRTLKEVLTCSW
Property Name: EC50 (nM)
Numbers only, in nM.

[[record]]
smiles_entry = "N=C(N)NCCC[C@@H]1NC(=O)[C@@H](Cc2ccccc2)NC(=O)[C@H](CC2CCCCC2)NC(=O)c2cc([N+](=O)[O-])ccc2SC[C@@H](C(N)=O)NC(=O)[C@H](Cc2c[nH]c3ccccc23)NC1=O"
reported_measurement = 810


input: Consider the molecule `N=C(N)NCCC[C@@H]1NC(=O)[C@@H](Cc2ccccc2)NC(=O)[C@H](Cc2cnc[nH]2)NC(=O)c2cc([N+](=O)[O-])ccc2SC[C@@H](C(N)=O)NC(=O)[C@@H](Cc2c[nH]c3ccccc23)NC1=O` and give its measured EC50.
output: 100
